Target: AchR (Homo sapiens, UniProt P02708)
Sequence (P02708 21-457): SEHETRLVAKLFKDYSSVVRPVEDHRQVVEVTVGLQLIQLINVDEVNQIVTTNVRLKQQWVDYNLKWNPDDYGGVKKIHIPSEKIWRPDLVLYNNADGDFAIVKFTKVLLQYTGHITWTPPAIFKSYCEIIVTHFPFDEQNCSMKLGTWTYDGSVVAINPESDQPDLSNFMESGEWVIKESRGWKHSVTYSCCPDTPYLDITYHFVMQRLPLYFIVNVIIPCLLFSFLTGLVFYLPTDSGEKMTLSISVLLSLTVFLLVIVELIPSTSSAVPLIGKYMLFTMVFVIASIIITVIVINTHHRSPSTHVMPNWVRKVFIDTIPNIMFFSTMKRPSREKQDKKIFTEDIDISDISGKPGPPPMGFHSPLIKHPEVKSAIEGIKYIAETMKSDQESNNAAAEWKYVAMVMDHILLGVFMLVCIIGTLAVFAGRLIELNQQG
Test: ELISA of screened peptide phages on AchR versus streptavidin (OD450)
Type: binding
Conditions: phage ELISA, absorbance at 450 nm, 5 μg/ml AchR; 4th and 5th round biopanning phages
parameter: OD
Lab note: write the figure by itself, no unit.

In the examples that follow, each entry is paired with its recorded OD.
[
  {
    "chain": "RAKKIMFR [Peptide L1-177]",
    "OD": 0.484
  },
  {
    "chain": "KCKKMTER [Peptide L1-37]",
    "OD": 0.524
  },
  {
    "chain": "RFRKMIPK [Peptide L1-115]",
    "OD": 0.451
  },
  {
    "chain": "RTRKCVLK [Peptide L1-89]",
    "OD": 0.551
  },
  {
    "chain": "RIRRAHDR [Peptide L1-165]",
    "OD": 0.644
  },
  {
    "chain": "KSRRMWGR [Peptide L1-183]",
    "OD": 0.605
  }
]

Q) Supply reported OD belonging to this sequence: KGKRTGCK [Peptide L1-126]
A) 0.362

Q) Supply reported OD belonging to this sequence: KWKRNCTK [Peptide L1-65]
A) 0.585

Q) Supply reported OD belonging to this sequence: RYKKVPAK [Peptide L1-118]
A) 0.471

Q) Supply reported OD belonging to this sequence: KSRRSAGK [Peptide L1-73]
A) 0.644

Q) Supply reported OD belonging to this sequence: KRKKDWWR [Peptide L1-10]
A) 0.621

Q) Supply reported OD belonging to this sequence: RCKRFVGK [Peptide L1-173]
A) 0.63

Q) Supply reported OD belonging to this sequence: KMRRVAPR [Peptide L1-176]
A) 0.479

Q) Supply reported OD belonging to this sequence: KHKRTAQR [Peptide L1-78]
A) 0.642

Q) Supply reported OD belonging to this sequence: KMRKHDVR [Peptide L1-74]
A) 0.649
